pIC50 values for the compounds below.
# tgt: Acetylcholinesterase (Electrophorus electricus)
# Sequence (O42275 whole entry): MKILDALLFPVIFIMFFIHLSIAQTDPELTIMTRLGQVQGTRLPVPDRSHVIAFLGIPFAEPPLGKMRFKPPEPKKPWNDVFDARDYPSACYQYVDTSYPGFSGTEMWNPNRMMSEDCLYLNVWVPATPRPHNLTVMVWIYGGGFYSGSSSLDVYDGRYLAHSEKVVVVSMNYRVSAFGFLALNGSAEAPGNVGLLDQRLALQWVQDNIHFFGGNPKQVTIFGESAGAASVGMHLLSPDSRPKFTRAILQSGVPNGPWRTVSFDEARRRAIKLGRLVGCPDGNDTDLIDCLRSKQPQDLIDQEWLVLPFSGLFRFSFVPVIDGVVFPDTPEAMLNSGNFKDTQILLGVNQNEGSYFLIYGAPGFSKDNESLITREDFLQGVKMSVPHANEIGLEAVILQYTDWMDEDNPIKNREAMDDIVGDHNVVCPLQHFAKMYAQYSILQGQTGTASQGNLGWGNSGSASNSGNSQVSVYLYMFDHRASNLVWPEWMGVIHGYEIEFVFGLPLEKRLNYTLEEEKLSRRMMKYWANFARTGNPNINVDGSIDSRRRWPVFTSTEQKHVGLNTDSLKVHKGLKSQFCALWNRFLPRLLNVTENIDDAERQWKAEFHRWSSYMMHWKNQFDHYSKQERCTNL
# experimental.protocol: Inhibition of electric eel AChE using acetylthiocholine iodide as substrate preincubated for 15 mins followed by substrate addition and measured after 30 mins by Ellman's method
pIC50 is defined as minus the log10 of a concentration measured in mol/L.

- compound: "O=C1/C(=C/c2ccccc2Cl)CNCC12C(c1ccccc1Cl)C(Cc1c[nH]c3ccccc13)NC21c2ccccc2C2N=c3ccccc3=NC21 (configuration not stated)"
  endpoint.value: 4.79

Challenge: Identify the reported pIC50 for the following entry. O=C1/C(=C/c2ccccc2)CNCC12C(c1ccccc1)C(Cc1c[nH]c3ccccc13)NC21c2ccccc2C2N=c3ccccc3=NC21 (configuration not stated)
Response given: 5.13

Challenge: Identify the reported pIC50 for the following entry. O=C1/C(=C/c2ccc(Cl)cc2)CNCC12C(c1ccc(Cl)cc1)C(Cc1c[nH]c3ccccc13)NC21c2ccccc2C2N=c3ccccc3=NC21 (configuration not stated)
Response given: 4.90

Challenge: Identify the reported pIC50 for the following entry. O=C1/C(=C/c2ccc(Cl)cc2Cl)CNCC12C(c1ccc(Cl)cc1Cl)C(Cc1c[nH]c3ccccc13)NC21c2ccccc2C2N=c3ccccc3=NC21 (configuration not stated)
Response given: 4.99

Challenge: Identify the reported pIC50 for the following entry. Cc1ccccc1/C=C1\CNCC2(C1=O)C(c1ccccc1C)C(Cc1c[nH]c3ccccc13)NC21c2ccccc2C2N=c3ccccc3=NC21 (configuration not stated)
Response given: 5.24

Challenge: Identify the reported pIC50 for the following entry. O=C1/C(=C/c2ccc(Br)cc2)CNCC12C(c1ccc(Br)cc1)C(Cc1c[nH]c3ccccc13)NC21c2ccccc2C2N=c3ccccc3=NC21 (configuration not stated)
Response given: 4.82

Challenge: Identify the reported pIC50 for the following entry. COc1ccc(/C=C2\CNCC3(C2=O)C(c2ccc(OC)cc2)C(Cc2c[nH]c4ccccc24)NC32c3ccccc3C3N=c4ccccc4=NC32)cc1 (configuration not stated)
Response given: 5.14

----------
Quick record of pIC50 values for Acetylcholinesterase (Electrophorus electricus, UniProt O42275).
pIC50 is defined as minus the log10 of a concentration measured in mol/L.

Please review the following examples before continuing.
- molecule: "Cc1ccc(/C=C2\\CNCC3(C2=O)C(c2ccc(C)cc2)C(Cc2c[nH]c4ccccc24)NC32c3ccccc3C3N=c4ccccc4=NC32)cc1 (stereo not drawn)"
  pIC50: 5.49
- molecule: "O=C1/C(=C/c2cccc([N+](=O)[O-])c2)CNCC12C(c1cccc([N+](=O)[O-])c1)C(Cc1c[nH]c3ccccc13)NC21c2ccccc2C2N=c3ccccc3=NC21 (stereo not drawn)"
  pIC50: 5.70

Read the next record carefully.
Challenge: # lookup: Acetylcholinesterase (Electrophorus electricus, UniProt O42275) pIC50, key = Cc1cccc(/C=C2\CNCC3(C2=O)C(c2cccc(C)c2)C(Cc2c[nH]c4ccccc24)NC32c3ccccc3C3N=c4ccccc4=NC32)c1 (stereo not drawn)
Response given: 5.16

----------
# experimental.protocol: Selectivity index, ratio of IC50 for electric eel AChE to IC50 for equine serum BChE
assay.endpoint: Ratio IC50
Give the value as a plain number.

Please review the following examples before continuing.
- compound: "O=C1/C(=C/c2ccc(Cl)cc2)CNCC12C(c1ccc(Cl)cc1)C(Cc1c[nH]c3ccccc13)NC21c2ccccc2C2N=c3ccccc3=NC21 (stereo not given)"
  Ratio IC50: 0.67
- compound: "Cc1cccc(/C=C2\\CNCC3(C2=O)C(c2cccc(C)c2)C(Cc2c[nH]c4ccccc24)NC32c3ccccc3C3N=c4ccccc4=NC32)c1 (stereo not given)"
  Ratio IC50: 0.45
- compound: "O=C1/C(=C/c2ccc(Br)cc2)CNCC12C(c1ccc(Br)cc1)C(Cc1c[nH]c3ccccc13)NC21c2ccccc2C2N=c3ccccc3=NC21 (stereo not given)"
  Ratio IC50: 0.74
- compound: "Cc1ccccc1/C=C1\\CNCC2(C1=O)C(c1ccccc1C)C(Cc1c[nH]c3ccccc13)NC21c2ccccc2C2N=c3ccccc3=NC21 (stereo not given)"
  Ratio IC50: 0.39
- compound: "Cc1ccc(/C=C2\\CNCC3(C2=O)C(c2ccc(C)cc2)C(Cc2c[nH]c4ccccc24)NC32c3ccccc3C3N=c4ccccc4=NC32)cc1 (stereo not given)"
  Ratio IC50: 0.26

Challenge: Identify the reported Ratio IC50 for the following entry. COc1ccc(/C=C2\CNCC3(C2=O)C(c2ccc(OC)cc2)C(Cc2c[nH]c4ccccc24)NC32c3ccccc3C3N=c4ccccc4=NC32)cc1 (stereo not given)
Response given: 0.31

Challenge: Identify the reported Ratio IC50 for the following entry. O=C1/C(=C/c2ccccc2Cl)CNCC12C(c1ccccc1Cl)C(Cc1c[nH]c3ccccc13)NC21c2ccccc2C2N=c3ccccc3=NC21 (stereo not given)
Response given: 0.62

Challenge: Identify the reported Ratio IC50 for the following entry. O=C1/C(=C/c2cccc([N+](=O)[O-])c2)CNCC12C(c1cccc([N+](=O)[O-])c1)C(Cc1c[nH]c3ccccc13)NC21c2ccccc2C2N=c3ccccc3=NC21 (stereo not given)
Response given: 0.19

Challenge: Identify the reported Ratio IC50 for the following entry. O=C1/C(=C/c2ccc(Cl)cc2Cl)CNCC12C(c1ccc(Cl)cc1Cl)C(Cc1c[nH]c3ccccc13)NC21c2ccccc2C2N=c3ccccc3=NC21 (stereo not given)
Response given: 0.58

Challenge: Identify the reported Ratio IC50 for the following entry. O=C1/C(=C/c2ccccc2)CNCC12C(c1ccccc1)C(Cc1c[nH]c3ccccc13)NC21c2ccccc2C2N=c3ccccc3=NC21 (stereo not given)
Response given: 0.52

----------
# experimental.protocol: Selectivity index, ratio of IC50 for equine serum BChE to IC50 for electric eel AChE
Ratio IC50 values for the compounds below.
Give the value as a plain number.

- compound: "O=C1/C(=C/c2ccccc2)CNCC12C(c1ccccc1)C(Cc1c[nH]c3ccccc13)NC21c2ccccc2C2N=c3ccccc3=NC21 (stereo not given)"
  Ratio IC50: 1.93
- compound: "O=C1/C(=C/c2cccc([N+](=O)[O-])c2)CNCC12C(c1cccc([N+](=O)[O-])c1)C(Cc1c[nH]c3ccccc13)NC21c2ccccc2C2N=c3ccccc3=NC21 (stereo not given)"
  Ratio IC50: 5.2
- compound: "O=C1/C(=C/c2ccc(Cl)cc2)CNCC12C(c1ccc(Cl)cc1)C(Cc1c[nH]c3ccccc13)NC21c2ccccc2C2N=c3ccccc3=NC21 (stereo not given)"
  Ratio IC50: 1.5
- compound: "O=C1/C(=C/c2ccccc2Cl)CNCC12C(c1ccccc1Cl)C(Cc1c[nH]c3ccccc13)NC21c2ccccc2C2N=c3ccccc3=NC21 (stereo not given)"
  Ratio IC50: 1.63
- compound: "Cc1ccc(/C=C2\\CNCC3(C2=O)C(c2ccc(C)cc2)C(Cc2c[nH]c4ccccc24)NC32c3ccccc3C3N=c4ccccc4=NC32)cc1 (stereo not given)"
  Ratio IC50: 3.85

Challenge: Identify the reported Ratio IC50 for the following entry. O=C1/C(=C/c2ccc(Cl)cc2Cl)CNCC12C(c1ccc(Cl)cc1Cl)C(Cc1c[nH]c3ccccc13)NC21c2ccccc2C2N=c3ccccc3=NC21 (stereo not given)
Response given: 1.73

Challenge: Identify the reported Ratio IC50 for the following entry. O=C1/C(=C/c2ccc(Br)cc2)CNCC12C(c1ccc(Br)cc1)C(Cc1c[nH]c3ccccc13)NC21c2ccccc2C2N=c3ccccc3=NC21 (stereo not given)
Response given: 1.35

Challenge: Identify the reported Ratio IC50 for the following entry. Cc1cccc(/C=C2\CNCC3(C2=O)C(c2cccc(C)c2)C(Cc2c[nH]c4ccccc24)NC32c3ccccc3C3N=c4ccccc4=NC32)c1 (stereo not given)
Response given: 2.22

Challenge: Identify the reported Ratio IC50 for the following entry. COc1ccc(/C=C2\CNCC3(C2=O)C(c2ccc(OC)cc2)C(Cc2c[nH]c4ccccc24)NC32c3ccccc3C3N=c4ccccc4=NC32)cc1 (stereo not given)
Response given: 3.22

Challenge: Identify the reported Ratio IC50 for the following entry. Cc1ccccc1/C=C1\CNCC2(C1=O)C(c1ccccc1C)C(Cc1c[nH]c3ccccc13)NC21c2ccccc2C2N=c3ccccc3=NC21 (stereo not given)
Response given: 2.54

----------
# tgt: UniProt:P81908
# Sequence (P81908 whole entry): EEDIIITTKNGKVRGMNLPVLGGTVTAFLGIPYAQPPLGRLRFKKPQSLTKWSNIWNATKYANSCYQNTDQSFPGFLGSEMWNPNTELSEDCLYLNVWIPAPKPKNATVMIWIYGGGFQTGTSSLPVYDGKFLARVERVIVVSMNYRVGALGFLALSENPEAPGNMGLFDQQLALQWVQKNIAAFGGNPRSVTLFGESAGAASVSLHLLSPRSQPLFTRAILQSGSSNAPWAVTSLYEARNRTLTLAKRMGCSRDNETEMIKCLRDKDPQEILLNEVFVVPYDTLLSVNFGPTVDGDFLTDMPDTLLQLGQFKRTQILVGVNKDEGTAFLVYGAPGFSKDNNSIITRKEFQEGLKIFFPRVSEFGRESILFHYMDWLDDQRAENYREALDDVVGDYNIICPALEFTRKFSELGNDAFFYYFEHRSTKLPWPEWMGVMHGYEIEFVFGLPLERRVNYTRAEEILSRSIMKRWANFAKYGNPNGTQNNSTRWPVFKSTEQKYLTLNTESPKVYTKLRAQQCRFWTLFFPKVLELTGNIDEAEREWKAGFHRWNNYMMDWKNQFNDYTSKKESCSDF
# experimental.protocol: Inhibition of equine serum BChE using butyrylthiocholine chloride as substrate preincubated for 15 mins followed by substrate addition and measured after 30 mins by Ellman's method
assay.endpoint: IC50 (µM)
All answers are understood in µM, so give the number only.

Please review the following examples before continuing.
- compound: "O=C1/C(=C/c2ccc(Cl)cc2Cl)CNCC12C(c1ccc(Cl)cc1Cl)C(Cc1c[nH]c3ccccc13)NC21c2ccccc2C2N=c3ccccc3=NC21 (stereo not given)"
  tgt: "UniProt:P81908"
  endpoint.value: 17.6
- compound: "Cc1ccc(/C=C2\\CNCC3(C2=O)C(c2ccc(C)cc2)C(Cc2c[nH]c4ccccc24)NC32c3ccccc3C3N=c4ccccc4=NC32)cc1 (stereo not given)"
  tgt: "UniProt:P81908"
  endpoint.value: 12.4
- compound: "O=C1/C(=C/c2ccccc2)CNCC12C(c1ccccc1)C(Cc1c[nH]c3ccccc13)NC21c2ccccc2C2N=c3ccccc3=NC21 (stereo not given)"
  tgt: "UniProt:P81908"
  endpoint.value: 14.2
- compound: "Cc1cccc(/C=C2\\CNCC3(C2=O)C(c2cccc(C)c2)C(Cc2c[nH]c4ccccc24)NC32c3ccccc3C3N=c4ccccc4=NC32)c1 (stereo not given)"
  tgt: "UniProt:P81908"
  endpoint.value: 15.2
- compound: "COc1ccc(/C=C2\\CNCC3(C2=O)C(c2ccc(OC)cc2)C(Cc2c[nH]c4ccccc24)NC32c3ccccc3C3N=c4ccccc4=NC32)cc1 (stereo not given)"
  tgt: "UniProt:P81908"
  endpoint.value: 23.2
- compound: "O=C1/C(=C/c2cccc([N+](=O)[O-])c2)CNCC12C(c1cccc([N+](=O)[O-])c1)C(Cc1c[nH]c3ccccc13)NC21c2ccccc2C2N=c3ccccc3=NC21 (stereo not given)"
  tgt: "UniProt:P81908"
  endpoint.value: 10.5
- compound: "O=C1/C(=C/c2ccc(Br)cc2)CNCC12C(c1ccc(Br)cc1)C(Cc1c[nH]c3ccccc13)NC21c2ccccc2C2N=c3ccccc3=NC21 (stereo not given)"
  tgt: "UniProt:P81908"
  endpoint.value: 20.6
- compound: "O=C1/C(=C/c2ccc(Cl)cc2)CNCC12C(c1ccc(Cl)cc1)C(Cc1c[nH]c3ccccc13)NC21c2ccccc2C2N=c3ccccc3=NC21 (stereo not given)"
  tgt: "UniProt:P81908"
  endpoint.value: 18.8
- compound: "O=C1/C(=C/c2ccccc2Cl)CNCC12C(c1ccccc1Cl)C(Cc1c[nH]c3ccccc13)NC21c2ccccc2C2N=c3ccccc3=NC21 (stereo not given)"
  tgt: "UniProt:P81908"
  endpoint.value: 26.7

Challenge: Identify the reported IC50 for the following entry. Cc1ccccc1/C=C1\CNCC2(C1=O)C(c1ccccc1C)C(Cc1c[nH]c3ccccc13)NC21c2ccccc2C2N=c3ccccc3=NC21 (stereo not given)
Response given: 14.7
